- Test system: SW-620 colon
- Measurement Protocol: NCI-60 one-dose screen, 48 h
- Measurement Conditions: 10 µM unless noted
About 83,000 compounds went through this panel and 20% of them were active in at least one assay; those are over-represented in the sample as a whole. The source made the active and inactive calls. How the source made its calls: active means growth percent below 10; inactive means the rest.
Outcome (select one): 1 (active), -1 (inactive)

CC1(C)S[C@H]2CC[C@H]3OC(=O)[C@@H]1N23    -1

Task: I would be grateful if you could indicate the recorded call for "Nc1c(Cl)c(Cl)nc(C(=O)O)c1Cl" .
Output: -1

Task: I would be grateful if you could indicate the recorded call for "CC(C)COC(=O)Cc1ccccc1" .
Output: -1

Task: I would be grateful if you could indicate the recorded call for "COc1cc2c(cc1OC)-c1c3c(cc4c1[C@@H](C2)N(C)CC4)OCO3" .
Output: -1

====

- System: HCC-2998 colon
- Measurement Protocol: NCI-60 one-dose screen, 48 h (100 = growth as untreated, 0 = no growth, -100 = all killed)
- Measurement Conditions: 10 µM unless noted
The panel holds about 83,000 compounds, 20% with a hit somewhere; the sample as a whole holds those more often. Activity calls are given as the source filed them. The calls were made as follows: active = growth percent below 10; inactive = the rest.
Entries and their growth

# count of solved cases: 2
C[Se]/C=C1/C(=O)N(c2c(Cl)cccc2Cl)c2ccccc21    77.2% (inactive)
C=C1C(=O)OC2CC3(C)OC3C3OC3C3=CC(OC3=O)C12 (stereo not drawn)    103% (inactive)

Now take the following compound into account.
Task: Consider the compound shown here: "Cn1cc(C(=O)C[n+]2ccccc2)c2ccccc21" What is its recorded growth?
Output: 106% (inactive)

====

Entries and their growth
- System: SNB-19 CNS
- Measurement Protocol: NCI-60 one-dose screen, 48 h (100 = growth as untreated, 0 = no growth, -100 = all killed)
- Measurement Conditions: 10 µM unless noted
Compounds without any hit were thinned out: in the full panel of roughly 83,000, 20% have a hit.
Dear colleague, please return just the value in %, with no unit written.

# count of solved cases: 4
N#CC(N)c1ccccc1 (stereo not given)    105
C[C@]12C[C@H](c3ccoc3)OC(=O)[C@H]1CC[C@@]1(C)[C@@H]2[C@H]2C=C[C@]1(O)C(=O)O2    102
CC[C@H](C)[C@H]1O[C@]2(C=C[C@@H]1C)C[C@@H]1C[C@@H](C/C=C(\C)[C@@H](O[C@H]3C[C@H](OC)[C@@H](O[C@H]4C[C@H](OC)[C@@H](NC)[C@H](C)O4)[C@H](C)O3)[C@@H](C)/C=C/C=C3\CO[C@@H]4[C@H](O)C(C)=C[C@@H](C(=O)O1)[C@]34O)O2    13.7
CCN1C(=O)CC(=O)N(CC)C1=S    101

Now take the following compound into account.
Task: Consider the compound shown here: "O=C(O)C(F)F" What is its recorded growth?
Output: 111

====

- Test system: K-562 leukemia
- Measurement Protocol: NCI-60 one-dose screen, 48 h (100 = growth as untreated, 0 = no growth, -100 = all killed)
- Measurement Conditions: 10 µM unless noted
About 83,000 compounds went through this panel and 20% of them were active in at least one assay; those are over-represented in the sample as a whole.
Entries and their growth
Dear colleague, please return just the value in %, with no unit written.

CNC(=O)CCl    121
CC1(C)N(Nc2ccccc2)C(=O)C2CCCN21 (stereo not given)    8.29
CO[C@H]1[C@H](O[C@@H]2C[C@@H]3C/C=C/C(=O)O[C@@H](CO)C[C@H](O)[C@@H]4C[C@H](C)[C@H](C/C=C\C=C\[C@H](C)C[C@H](C2)O3)O4)O[C@@H](C)[C@H](O)[C@H]1O    25.4
C#Cc1cccc(Nc2nc(Cl)nc3cc(NC(=O)CF)ccc23)c1    28
C[C@@]12CCCc3coc(c31)C(=O)c1cc3c(cc12)C(=O)C1=C(NCCS1(=O)=O)C3=O    -38.6
CCC(=O)C(CC(C)N1CCCCCC1)(c1ccccc1)c1ccccc1 (stereo not given)    82.6
CCCC[C@H]1C(=O)O[C@H](C)[C@H](NC(=O)c2cccc(NC=O)c2O)C(=O)O[C@@H](C)[C@@H]1OC(=O)CC(C)C    26.4
O=C/C=C/c1ccco1    88.8

Task: Give K-562 leukemia growth for "COc1ccc2c(c1)c(-c1nc(-c3cn(C)c4ncccc34)cs1)cn2CCCCN1CCOCC1"
Output: -41

Task: Give K-562 leukemia growth for "COc1cc(/C=C\[N+](=O)[O-])ccc1OCc1ccccc1"
Output: 0.133

====

- Test system: UACC-62 melanoma
- Measurement Protocol: NCI-60 one-dose screen, 48 h (100 = growth as untreated, 0 = no growth, -100 = all killed)
- Measurement Conditions: 10 µM unless noted
The panel holds about 83,000 compounds, 20% with a hit somewhere; the sample as a whole holds those more often.
Parameter: growth (%)
Dear colleague, please return just the value in %, with no unit written.

CC[C@H](C)[C@H](NC(=O)[C@H]1CCCCN1C)C(=O)N(C)[C@H](C[C@@H](OC(C)=O)c1nc(C(=O)NC23C4C5C2C2C3C4C52C(=O)OC)cs1)C(C)C (stereo partly specified)    43.8
CC(C)CCC1C(=O)NC(=O)NC1=O    96.7
O=c1[nH]c(=O)[nH]c(=O)[nH]1    113
COc1ccc(N)cc1OC    97.5
COC[C@H]1OC(=O)c2coc3c2[C@@]1(C)C1=C(C3=O)[C@@H]2CCC(=O)[C@@]2(C)C[C@H]1OC(C)=O    15.7

Now take the following compound into account.
Task: Consider the compound shown here: "CC[C@H](C)[C@H](NC(=O)CN(C)C)C(=O)N(C)[C@H](C[C@@H](OC(C)=O)c1nc(C(=O)NC23CC(C(=O)OC)(C2)C3)cs1)C(C)C" What is its recorded growth?
Output: 24.4

====

- Test system: LOX IMVI melanoma
- Measurement Protocol: NCI-60 one-dose screen, 48 h
- Measurement Conditions: 10 µM unless noted
The panel holds about 83,000 compounds, 20% with a hit somewhere; the sample as a whole holds those more often. Active and inactive are the calls of the source. The calls were made as follows: active = growth percent below 10; inactive = the rest.
Outcome (select one): active, inactive

A selection of reference data follows.
CCC1(NC(=O)c2cc(F)c(F)c(F)c2F)C(=O)NC(=O)N(C(C)C)C1=O (stereo not given)    inactive
CN1[C@@H](CC(=O)c2ccccc2)CCC[C@H]1CC(=O)c1ccccc1    inactive
O=[N+]([O-])c1cc(Cl)c(Cl)c([N+](=O)[O-])c1Cl    active
O=[N+]([O-])c1cc(Br)c(O)c(Br)c1    inactive

Now for another entry.
Task: I would be grateful if you could indicate the recorded call for C=CCOC(=O)C(Br)CC (stereo not given) .
Output: inactive

====

- Test system: SW-620 colon
- Measurement Protocol: NCI-60 one-dose screen, 48 h
- Measurement Conditions: 10 µM unless noted
About 83,000 compounds went through this panel and 20% of them were active in at least one assay; those are over-represented in the sample as a whole. The source made the active and inactive calls. How the source made its calls: active means growth percent below 10; inactive means the rest.
Outcome (select one): YES (active), NO (inactive)

A selection of reference data follows.
COc1cc(C2C3=C(CCCC3=O)N(CCO)c3cc4c(cc32)CCC4)cc(OC)c1OC (stereo unspecified)    NO
C#COc1cccc(Nc2ncnc3cc(NC(=O)CF)ccc23)c1    NO
Cc1ccccc1-n1c(/C=C\c2ccccn2)nc2ccccc2c1=O    NO
O=P(O)(Nc1ccccc1)Nc1ccccc1    NO
N#CC(N)c1ccccc1 (stereo unspecified)    NO

Task: I would be grateful if you could indicate the recorded call for "CC1(C)CN=C(NN=C(/C=C/c2ccc(C(F)(F)F)cc2)/C=C/c2ccc(C(F)(F)F)cc2)NC1" .
Output: YES

Task: I would be grateful if you could indicate the recorded call for CN1C2CCC1[C@@H](COC(=O)c1ccccc1)[C@@H](O)C2 (stereo partly specified) .
Output: NO

Task: I would be grateful if you could indicate the recorded call for "O=C(O)CNCP(=O)(O)O" .
Output: NO

Task: I would be grateful if you could indicate the recorded call for "C/C(=N/OC(=O)N(C)C)c1ccc(Cl)c(Cl)c1" .
Output: NO

Task: I would be grateful if you could indicate the recorded call for "O=NN1CCCCC1" .
Output: NO

Task: I would be grateful if you could indicate the recorded call for O=S(OO)c1cc(Cl)c(O)c(Cl)c1 (stereo unspecified) .
Output: NO

The measurements presented in this section are drawn from PubChem BioAssay (NCI).
